System: 636577-100-R-J1-PDC complex spheroid viability
assay_overview: Anticancer human tumor 636577-100-R-J1-PDC patient-derived endometrial adenocarcinoma cell line growth inhibition [GQUAD]
cond: second compound 3.16 µM; first compound 0.1 µM; active compounds read low
Each entry falls in a class defined on viability, T/C; the bands are b0 (below 20%), b1 (20% to below 40%), b2 (40% or more)

Answered examples (6):
compound	group
C=CC(=O)N1CCN(c2nc(=O)n(-c3c(C)ccnc3C(C)C)c3nc(-c4c(O)cccc4F)c(F)cc23)C(C)C1 (centres undefined) + Cc1cnc(CNC(=O)c2c(=O)c3ccc(N4CCCN(C)CC4)nc3n3c2sc2ccccc23)cn1	b1
COc1ncnc(C2CC2)c1-c1ncc2cnn(Cc3ccc(-c4nc(C(F)(F)F)cn4C(C)C)cc3)c2n1 + Cc1cnc(CNC(=O)c2c(=O)c3ccc(N4CCCN(C)CC4)nc3n3c2sc2ccccc23)cn1	b1
O=C(NO)c1cnc(N2CCN(S(=O)(=O)c3ccc4ccccc4c3)CC2)nc1 + Cc1cnc(CNC(=O)c2c(=O)c3ccc(N4CCCN(C)CC4)nc3n3c2sc2ccccc23)cn1	b0
Nc1ccn(C2OC(CO)C(O)C2(F)F)c(=O)n1 (centres undefined) + CN(C)c1ccc(Nc2c3ccc(NC(=O)CCN4CCCC4)cc3nc3cc(NC(=O)CCN4CCCC4)ccc23)cc1	b0
CC(C)(O)C1CCC(Nc2ccc3ncc(-c4cccc(C(F)(F)F)c4)n3n2)CC1 (centres undefined) + CN(C)c1ccc(Nc2c3ccc(NC(=O)CCN4CCCC4)cc3nc3cc(NC(=O)CCN4CCCC4)ccc23)cc1	b2
CC(=O)O[C@H]1C(=O)[C@@]2(C)[C@H]([C@H](OC(=O)c3ccccc3)[C@]3(O)C[C@H](OC(=O)[C@H](O)[C@@H](NC(=O)c4ccccc4)c4ccccc4)C(C)=C1C3(C)C)[C@]1(OC(C)=O)CO[C@@H]1C[C@@H]2O + Cc1cnc(CNC(=O)c2c(=O)c3ccc(N4CCCN(C)CC4)nc3n3c2sc2ccccc23)cn1	b0

Req: Just checking, what class would you give COc1ccc([C@@H](O)c2cc(-c3ncnc4cc(N5CCOCC5)ccc34)c(F)cc2Cl)nn1 + Cc1cnc(CNC(=O)c2c(=O)c3ccc(N4CCCN(C)CC4)nc3n3c2sc2ccccc23)cn1 here?
Resp: b0

Req: State the band of CC(C)n1c(=O)n(C)c2cnc3cc(F)c(-c4ccc(OCCCN5CCCCC5)nc4)cc3c21 + CN(C)c1ccc(Nc2c3ccc(NC(=O)CCN4CCCC4)cc3nc3cc(NC(=O)CCN4CCCC4)ccc23)cc1
Resp: b1

Req: Please let me know in which category the item CC1COCCN1c1cc(C2(S(C)(=N)=O)CC2)nc(-c2ccnc3[nH]ccc23)n1 (centres undefined) + CN(C)c1ccc(Nc2c3ccc(NC(=O)CCN4CCCC4)cc3nc3cc(NC(=O)CCN4CCCC4)ccc23)cc1 belongs.
Resp: b2

###

Tested on: 636577-100-R-J1-PDC complex spheroid viability
assay_overview: Anticancer human tumor 636577-100-R-J1-PDC cell line growth inhibition [GQUAD];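 note: luminescence signal used as a proxy for viable cells; viability read after seven days of drug exposure; 100% = DMSO vehicle control wells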
cond: second compound 3.16 µM; first compound 0.1 µM; active compounds read low
Threshold 30%: viability, T/C strictly smaller gives y, otherwise n.

Solved entries (count: 9):
compound	group
CC1COCCN1c1cc(C2(O)CC3CCC(C2)O3)c2cnn(-c3ccn[nH]3)c2n1 (stereo not given) + CN(C)c1ccc(Nc2c3ccc(NC(=O)CCN4CCCC4)cc3nc3cc(NC(=O)CCN4CCCC4)ccc23)cc1	y
CC(C)n1c(=O)n(C)c2cnc3cc(F)c(-c4ccc(OCCCN5CCCCC5)nc4)cc3c21 + Cc1[nH]c2ccc(F)cc2c1-c1nc2c3cccnc3c3ncccc3c2[nH]1	n
O=c1[nH]cc(F)c(=O)[nH]1 + CN(C)c1ccc(Nc2c3ccc(NC(=O)CCN4CCCC4)cc3nc3cc(NC(=O)CCN4CCCC4)ccc23)cc1	n
O=C(NO)c1cnc(N2CCN(S(=O)(=O)c3ccc4ccccc4c3)CC2)nc1 + CN(C)c1ccc(Nc2c3ccc(NC(=O)CCN4CCCC4)cc3nc3cc(NC(=O)CCN4CCCC4)ccc23)cc1	y
Cc1cccc(N(C)C(=O)C2C(O)CCN2c2nc(C)cc(C(F)(F)F)c2C#N)c1 (stereo not given) + CN(C)c1ccc(Nc2c3ccc(NC(=O)CCN4CCCC4)cc3nc3cc(NC(=O)CCN4CCCC4)ccc23)cc1	n
CC1COCCN1c1cc(C2(O)CC3CCC(C2)O3)c2cnn(-c3ccn[nH]3)c2n1 (stereo not given) + Cc1[nH]c2ccc(F)cc2c1-c1nc2c3cccnc3c3ncccc3c2[nH]1	y
CC(C)(O)C1CCC(Nc2ccc3ncc(-c4cccc(C(F)(F)F)c4)n3n2)CC1 (stereo not given) + Cc1[nH]c2ccc(F)cc2c1-c1nc2c3cccnc3c3ncccc3c2[nH]1	y
C=CCn1c(=O)c2cnc(Nc3ccc(N4CCN(C)CC4)cc3)nc2n1-c1cccc(C(C)(C)O)n1 + Cc1cnc(CNC(=O)c2c(=O)c3ccc(N4CCCN(C)CC4)nc3n3c2sc2ccccc23)cn1	y
Nc1ccn(C2OC(CO)C(O)C2(F)F)c(=O)n1 (stereo not given) + Cc1cnc(CNC(=O)c2c(=O)c3ccc(N4CCCN(C)CC4)nc3n3c2sc2ccccc23)cn1	y

Req: Strictly below 30% in viability, T/C? O=C(c1cc(Cc2n[nH]c(=O)c3ccccc23)ccc1F)N1CCN(C(=O)C2CC2)CC1 + Cc1[nH]c2ccc(F)cc2c1-c1nc2c3cccnc3c3ncccc3c2[nH]1
Resp: n
